# Target Or Test System: T1, human IL-18BP (interleukin-18 binding protein, isoform A) (human, UniProt O95998 31-194)
# T1 sequence: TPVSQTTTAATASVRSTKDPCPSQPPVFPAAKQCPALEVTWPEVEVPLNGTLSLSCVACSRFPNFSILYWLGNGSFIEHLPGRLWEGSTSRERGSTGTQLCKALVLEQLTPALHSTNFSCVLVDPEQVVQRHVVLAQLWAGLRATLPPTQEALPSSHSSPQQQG
# Test Protocol: cell-based or functional assay
Listed next: entries and their corresponding EC50 in PBMC Assay 1 (endogenous IL-18BP), IFNγ.
Quick note: give the figure in nM, leave out the unit.

Binder: SA310a (antibody, human IgG1, V domains shown, humanized; human IgG1 (suffix a), kappa) VH: QVQLQESGPGLVKPSQTLSLTCTVSGYSITSDYNAHWIRQPPGKGLEWIGYIHYSGSTMYNPSLKSRVTISRDTSKNQFSLKLSSVTAADTAVYYCARNYGSIYVNYFDYWGQGTLVTVSS VL: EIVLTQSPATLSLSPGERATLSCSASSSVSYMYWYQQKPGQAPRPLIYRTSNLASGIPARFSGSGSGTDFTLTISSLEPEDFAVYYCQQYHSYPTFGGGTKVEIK
Observed Result: 1.9
//
Binder: SA305a (antibody, human IgG1, V domains shown) VH: QVQLQESGPGLVKPSQTLSLTCTVSGYSITSDYNAHWIRQPPGKGLEWIGYIHYSGSTNYNPSLKSRVTISRDTSKNQFSLKLSSVTAADTAVYYCARNFASIYVNYFDYWGQGTLVTVSS VL: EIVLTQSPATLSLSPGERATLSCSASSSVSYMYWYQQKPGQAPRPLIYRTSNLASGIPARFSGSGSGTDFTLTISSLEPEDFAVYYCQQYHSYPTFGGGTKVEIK
Observed Result: 4.4

Proceed to the following item.
So, SA304a (antibody, human IgG1, V domains shown) VH: QVQLQESGPGLVKPSQTLSLTCTVSGYSITSDYNAHWIRQPPGKGLEWIGYIHYSGSTNYNPSLKSRVTISRDTSKNQFSLKLSSVTAADTAVYYCARNYASIYVNYFDYWGQGTLVTVSS VL: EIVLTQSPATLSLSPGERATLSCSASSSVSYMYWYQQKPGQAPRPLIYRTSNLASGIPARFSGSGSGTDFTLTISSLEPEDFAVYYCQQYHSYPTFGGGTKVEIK ? Its EC50 in PBMC Assay 1 (endogenous IL-18BP), IFNγ was 3.1
